Catalogue of pIC50 values
- target: Recombinant, phosphorylated p38 MAPKγ (MAPK12:Invitrogen) (Homo sapiens, UniProt P53778)
- Sequence (P53778 whole entry): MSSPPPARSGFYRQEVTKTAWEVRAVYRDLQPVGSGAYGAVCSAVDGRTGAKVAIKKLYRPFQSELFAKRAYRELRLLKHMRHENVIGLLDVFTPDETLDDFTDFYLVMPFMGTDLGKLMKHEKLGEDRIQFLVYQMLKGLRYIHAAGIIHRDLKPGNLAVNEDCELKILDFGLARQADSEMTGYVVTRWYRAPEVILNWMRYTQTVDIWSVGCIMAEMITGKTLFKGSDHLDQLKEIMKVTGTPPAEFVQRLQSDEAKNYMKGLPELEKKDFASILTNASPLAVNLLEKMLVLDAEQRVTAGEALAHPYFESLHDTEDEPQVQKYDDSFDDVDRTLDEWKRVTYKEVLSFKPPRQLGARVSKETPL
- assay-comment: p38 MAPKγ enzyme inhibition assay (FRET, Z-LYTE)
- measurement-context: 2 hr pre-incubation, ATP 100 μM; read-out: Enzyme Inhibition IC50 p38γ
# pIC50 = -log10(concentration in molar units)

Guide cases for pIC50, answers given:
Ask: Tell me the measured pIC50 of COCC(=O)Nc1cc(Oc2ccc(NC(=O)Nc3cc(C(C)(C)C)nn3-c3ccc(O)c(Cl)c3)c3ccccc23)ccn1 , please.
Result: 6.48

Ask: Tell me the measured pIC50 of COCC(=O)Nc1cc(Oc2ccc(NC(=O)Nc3cc(C(C)(C)C)nn3-c3ccc(C)nc3)c3ccccc23)ccn1 , please.
Result: 6.61

Ask: Tell me the measured pIC50 of COCC(=O)Nc1cc(Oc2ccc(NC(=O)Nc3cc(C(C)(C)C)nn3-c3cccc(O)c3)c3ccccc23)ccn1 , please.
Result: 7.11

Ask: Tell me the measured pIC50 of COc1ccc(-n2nc(C(C)(C)C)cc2NC(=O)Nc2ccc(Oc3ccnc(NC(=O)NC4CC4)c3)c3ccccc23)cc1 , please.
Result: 7.29

Ask: Tell me the measured pIC50 of CC(C)(C)c1cc(NC(=O)Nc2ccc(Oc3ccnc(NC(=O)N4CCCC4)c3)c3ccccc23)n(-c2ccc(O)cc2)n1 , please.
Result: 6.49

New cases:
Ask: Tell me the measured pIC50 of COCC(=O)Nc1cc(Oc2ccc(NC(=O)Nc3cc(C(C)(C)C)nn3-c3ccc(CO)c(Cl)c3)c3ccccc23)ccn1 , please.
Result: 6.77

====

- System: Differentiated U937 cells
- assay-comment: MTT assay: cell viability on exposure to test compounds
- Assay type: cell-based, human
- measurement-context: percentage loss of cell viability vs vehicle; 1 μg/mL, 24 h, 10% FCS
Catalogue of MTT Assay (Viability) 24 h d-U937 values
# unit: % | format: bare number

Ask: Tell me the measured MTT Assay (Viability) 24 h d-U937 of CNC(=O)Nc1cc(Oc2ccc(NC(=O)Nc3cc(C(C)(C)C)nn3-c3ccc(OC)cc3)c(C)c2C)ccn1 , please.
Result: 42.7

Ask: Tell me the measured MTT Assay (Viability) 24 h d-U937 of COCC(=O)Nc1cc(Oc2ccc(NC(=O)Nc3cc(C4(C)CCCCC4)nn3-c3ccc(C)cc3)c3ccccc23)ccn1 , please.
Result: −33.2

Ask: Tell me the measured MTT Assay (Viability) 24 h d-U937 of CNC(=O)Nc1cc(Oc2ccc(NC(=O)Nc3cc(C(C)(C)C)nn3-c3ccc(OC)nc3)c(C)c2C)ccn1 , please.
Result: 21.6

Ask: Tell me the measured MTT Assay (Viability) 24 h d-U937 of COCC(=O)Nc1cc(Oc2ccc(NC(=O)Nc3cc(C(C)(C)C)nn3-c3ccc(C(=O)OC)cc3)c3ccccc23)ccn1 , please.
Result: 0.1

Ask: Tell me the measured MTT Assay (Viability) 24 h d-U937 of COCC(=O)Nc1cc(COc2ccc(NC(=O)Nc3cc(C(C)(C)C)nn3-c3ccc(OC)nc3)c(C)c2C)ccn1 , please.
Result: −5.1

Ask: Tell me the measured MTT Assay (Viability) 24 h d-U937 of COCC(=O)Nc1cc(Oc2ccc(NC(=O)Nc3cc(C(C)(C)C)nn3-c3ccc(CO)c(OC)c3)c3ccccc23)ccn1 , please.
Result: 61.0

Ask: Tell me the measured MTT Assay (Viability) 24 h d-U937 of COCC(=O)Nc1cc(Oc2ccc(NC(=O)Nc3cc(C(C)(C)C)nn3-c3ccc(OC)c(Cl)c3)c3ccccc23)ccn1 , please.
Result: −7.5

Where these numbers come from: patent US9024041B2
